Test system: 186277-243-T-J2-PDC multi-cell spheroid viability
Experiment: Anticancer human tumor 186277-243-T-J2-PDC patient-derived colon adenocarcinoma cell line growth inhibition [PI3K]
Conditions: curve of first compound; second compound 0.0316 µM
METRIC: pIC50
Remember, pIC50 is on a log scale: it is -log10 of the molar concentration.

Item CCCS(=O)(=O)Nc1ccc(F)c(C(=O)c2c[nH]c3ncc(-c4ccc(Cl)cc4)cc23)c1F + CC(Nc1ncnc2nc[nH]c12)c1cc2cccc(Cl)c2c(=O)n1-c1ccccc1 has what recorded pIC50?
5.24

Field request: pIC50 | item: CC(C)NCC(C(=O)N1CCN(c2ncnc3c2C(C)CC3O)CC1)c1ccc(Cl)cc1 (stereo not given) + COc1c(OCCCN2CCOCC2)ccc2c3n(c(=NC(=O)c4cnc(N)nc4)nc12)CCN3
6.75

Given the compound CCCS(=O)(=O)Nc1ccc(F)c(C(=O)c2c[nH]c3ncc(-c4ccc(Cl)cc4)cc23)c1F + Cc1nc(NC(=O)N2CCCC2C(N)=O)sc1-c1ccnc(C(C)(C)C(F)(F)F)c1 , what is its reported pIC50?
5.27

----------
System: 186277-243-T-J2-PDC multi-cell spheroid viability
Experiment: Anticancer human tumor 186277-243-T-J2-PDC cell line growth inhibition [PI3K];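 also: spheroids exposed to compounds for seven days before viability reading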;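 as to viability, T/C: 100% = DMSO vehicle control viability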
Conditions: second compound 0.01 µM; first compound 0.1 µM; stronger effect = lower value
Exercise: state measured viability, T/C for each of the compounds provided.

What viability, T/C appears in the records for this compound with 186277-243-T-J2-PDC multi-cell spheroid viability? CC1(C)CCC(CN2CCN(c3ccc(C(=O)NS(=O)(=O)c4ccc(NCC5CCOCC5)c([N+](=O)[O-])c4)c(Oc4cnc5[nH]ccc5c4)c3)CC2)=C(c2ccc(Cl)cc2)C1 + COc1c(OCCCN2CCOCC2)ccc2c3n(c(=NC(=O)c4cnc(N)nc4)nc12)CCN3
105%

Request: viability, T/C, test system 186277-243-T-J2-PDC multi-cell spheroid viability, entry C=CC(=O)N1CCN(c2nc(=O)n(-c3c(C)ccnc3C(C)C)c3nc(-c4c(O)cccc4F)c(F)cc23)C(C)C1 (stereo not drawn) + CC(Nc1ccc2c(c1)OCCn1cc(N3C(=O)OCC3C(F)F)nc1-2)C(N)=O
99.4%

Form: Entry = CC1(C)CCC(Nc2ncc(C(F)(F)F)c(-c3c[nH]c4c(P(C)(C)=O)c(C#N)ccc34)n2)CN1 (stereo not drawn) + CC(Nc1ccc2c(c1)OCCn1cc(N3C(=O)OCC3C(F)F)nc1-2)C(N)=O | System = 186277-243-T-J2-PDC multi-cell spheroid viability | viability, T/C = ____
52.9%

----------
Test system: 186277-243-T-J2-PDC multi-cell spheroid viability
Assay: Anticancer human tumor 186277-243-T-J2-PDC cell line growth inhibition [PI3K];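 also: spheroids exposed to compounds for seven days before viability reading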;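 as to viability, T/C: 100% = DMSO vehicle control viability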
Conditions: second compound 0.0316 µM; first compound 0.00316 µM; stronger effect = lower value
Exercise: state measured viability, T/C for each of the molecules provided.
// units = %; emit number, no label

viability, T/C lookup needed for CC(=O)c1c(C)c2cnc(Nc3ccc(N4CCNCC4)cn3)nc2n(C2CCCC2)c1=O + COc1c(OCCCN2CCOCC2)ccc2c3n(c(=NC(=O)c4cnc(N)nc4)nc12)CCN3 , thanks.
68.8

Returns the measured viability, T/C for the input molecule. Input: CC(C)n1nc(-c2ccc3oc(N)nc3c2)c2c(N)ncnc21 + Cc1nc(NC(=O)N2CCCC2C(N)=O)sc1-c1ccnc(C(C)(C)C(F)(F)F)c1
101

Item under review: CC(C)n1nc(-c2ccc3oc(N)nc3c2)c2c(N)ncnc21 + CC(Nc1ncnc2nc[nH]c12)c1cc2cccc(Cl)c2c(=O)n1-c1ccccc1 . Reported viability, T/C?
108

// returns reported viability, T/C for input CC(C)n1nc(-c2ccc3oc(N)nc3c2)c2c(N)ncnc21 + CC(Nc1ccc2c(c1)OCCn1cc(N3C(=O)OCC3C(F)F)nc1-2)C(N)=O
97.9

What does the record list as viability, T/C for CCN1CCN(Cc2ccc(Nc3ncc(F)c(-c4cc(F)c5nc(C)n(C(C)C)c5c4)n3)nc2)CC1 + COc1c(OCCCN2CCOCC2)ccc2c3n(c(=NC(=O)c4cnc(N)nc4)nc12)CCN3 ?
68.4
